Assay Target: UniProt:Q9H2X6
Sequence (Q9H2X6 whole entry): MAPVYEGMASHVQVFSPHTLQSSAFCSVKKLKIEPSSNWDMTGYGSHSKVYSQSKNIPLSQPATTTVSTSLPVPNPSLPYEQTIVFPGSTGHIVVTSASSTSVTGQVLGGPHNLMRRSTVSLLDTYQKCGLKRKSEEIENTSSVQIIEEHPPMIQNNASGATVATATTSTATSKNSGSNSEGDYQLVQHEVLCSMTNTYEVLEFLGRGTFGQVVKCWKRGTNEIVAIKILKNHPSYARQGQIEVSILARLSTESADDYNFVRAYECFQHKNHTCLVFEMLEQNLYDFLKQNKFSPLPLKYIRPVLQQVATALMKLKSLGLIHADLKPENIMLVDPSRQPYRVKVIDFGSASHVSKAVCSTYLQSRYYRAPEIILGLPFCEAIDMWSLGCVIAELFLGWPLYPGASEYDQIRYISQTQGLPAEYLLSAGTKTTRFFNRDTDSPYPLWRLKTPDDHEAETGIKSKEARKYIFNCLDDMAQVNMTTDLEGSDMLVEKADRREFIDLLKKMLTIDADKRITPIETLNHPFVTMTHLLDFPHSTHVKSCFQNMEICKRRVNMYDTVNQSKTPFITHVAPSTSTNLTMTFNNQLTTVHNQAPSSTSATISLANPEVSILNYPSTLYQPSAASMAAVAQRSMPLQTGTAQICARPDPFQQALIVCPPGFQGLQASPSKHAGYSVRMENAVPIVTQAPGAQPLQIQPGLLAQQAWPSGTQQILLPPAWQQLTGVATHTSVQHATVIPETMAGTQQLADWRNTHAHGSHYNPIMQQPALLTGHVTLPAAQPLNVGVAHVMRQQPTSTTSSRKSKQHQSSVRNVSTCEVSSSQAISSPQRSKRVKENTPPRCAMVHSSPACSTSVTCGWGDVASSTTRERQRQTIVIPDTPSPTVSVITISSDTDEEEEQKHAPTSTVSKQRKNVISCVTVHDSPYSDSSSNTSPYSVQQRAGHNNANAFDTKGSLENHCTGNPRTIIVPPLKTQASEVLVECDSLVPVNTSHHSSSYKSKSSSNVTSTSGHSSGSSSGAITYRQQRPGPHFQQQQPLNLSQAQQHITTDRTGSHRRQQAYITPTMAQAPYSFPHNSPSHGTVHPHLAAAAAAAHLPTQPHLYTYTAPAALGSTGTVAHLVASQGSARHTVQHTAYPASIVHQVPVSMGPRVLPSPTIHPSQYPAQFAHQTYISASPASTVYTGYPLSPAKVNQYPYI
Measurement Notes: NanoBRET in-cell target engagement
Format: cell-based
pIC50: −log10 of the molar value.
Observation Type: pIC50

INSERT INTO assay_data (record_smiles, observation_type, measured) VALUES
  ('COc1cc(Nc2nccc(-c3cnn4nc(OC)ccc34)n2)cc(C(F)(F)F)c1', 'pIC50', '< 5.00');

----------
Assay Target: STK16 (Homo sapiens, UniProt O75716)
Sequence (O75716 whole entry): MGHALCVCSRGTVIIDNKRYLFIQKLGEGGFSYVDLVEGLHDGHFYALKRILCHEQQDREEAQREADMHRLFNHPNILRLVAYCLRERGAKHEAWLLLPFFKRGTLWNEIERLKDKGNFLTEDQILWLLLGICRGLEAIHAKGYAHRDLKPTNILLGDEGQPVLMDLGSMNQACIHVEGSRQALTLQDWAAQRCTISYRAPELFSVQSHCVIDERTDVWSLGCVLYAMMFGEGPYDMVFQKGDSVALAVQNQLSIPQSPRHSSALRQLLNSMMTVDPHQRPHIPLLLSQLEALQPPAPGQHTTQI
Observation Type: IC50 (nM)

INSERT INTO results (record_smiles, assay_target, units_of_measure, measured) VALUES
  ('COc1cc(Nc2nccc(-c3cnn4nc(OC)ccc34)n2)cc(C(F)(F)F)c1', 'STK16 (Homo sapiens, UniProt O75716)', 'nM', 49);

Data provenance: paper PMC10673624
